Give percent inhibition of viability for every item shown.
System: normal primary NK cells, pool 1 (3 donors) (IL-2 2.5 ng/mL)
assayMethodText: percent inhibition of viability; higher = more inhibition;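 note: normalised to DMSO-only wells as negative and benzethonium chloride as positive control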
particulars: 72 h; 0.1 nM
Numbers only, in %.

Look over these answered cases.
| molecule | targetOrSystem | measured |
| --- | --- | --- |
| CN1CCC(COc2cnc(-c3cccc(Cn4nc(-c5cccc(C#N)c5)ccc4=O)c3)nc2)CC1 (max concentration tested 1000 nM) | normal primary NK cells, pool 1 (3 donors) (IL-2 2.5 ng/mL) | -7 |
| Oc1ccc2c(c1)CC[C@H](c1ccccc1)[C@@H]2c1ccc(OCCN2CCCC2)cc1 [Lasofoxifene] (max concentration tested 1000 nM) | normal primary NK cells, pool 1 (3 donors) (IL-2 2.5 ng/mL) | -0.49 |
| CC(C)C[C@H](NC(=O)[C@H](Cc1ccccc1)NC(=O)c1cnccn1)B(O)O [Bortezomib] (max concentration tested 1000 nM) | normal primary NK cells, pool 1 (3 donors) (IL-2 2.5 ng/mL) | -11.7 |

Now for another entry.
Tell me the measured percent inhibition of viability of C=CC(=O)N1CCC[C@@H](n2nc(-c3ccc(Oc4ccccc4)cc3)c3c(N)ncnc32)C1 [Ibrutinib] (max concentration tested 1000 nM) , please.
-0.62

====

Test system: NK-YS (IL-2 2.5 ng/mL)
assayMethodText: percent inhibition of viability; higher = more inhibition
particulars: 72 h; 10 nM
endpointName: percent inhibition of viability (%)
Give bare numbers, in %.

Worked examples follow.
| molecule | unitSpec | measured |
| --- | --- | --- |
| Cc1cc(C)c(CNC(=O)c2cc(-c3ccc(CN4CCOCC4)cc3)cc3c2cnn3C2CCCC2)c(=O)[nH]1 [EPZ-5687] (max concentration tested 10000 nM) | % | -3.26 |
| NC(=O)N1CCC(CC(=O)N2CCC([C@H]3c4ncc(Br)cc4CCc4cc(Cl)cc(Br)c43)CC2)CC1 [Lonafarnib] (max concentration tested 10000 nM) | % | -2.78 |

# return percent inhibition of viability for each item in the list
1. CN1CCC(CNc2ccc3ncc(-c4cccc(OC(F)(F)F)c4)n3n2)CC1 [SGI-1776] (max concentration tested 10000 nM)
2. O=C(c1ccc(OCCN2CCCCC2)cc1)c1c(-c2ccc(O)cc2)sc2cc(O)ccc12 [Raloxifene] (max concentration tested 10000 nM)
3. COc1ccc(C2=N[C@@H](c3ccc(Cl)cc3)[C@@H](c3ccc(Cl)cc3)N2C(=O)N2CCNC(=O)C2)c(OC(C)C)c1 [Nutlin-3] (max concentration tested 10000 nM)
4. Nc1ncn([C@H]2C[C@H](O)[C@@H](CO)O2)c(=O)n1 [Decitabine] (max concentration tested 10000 nM)

2.07
-3.33
-4.19
4.69

====

System: normal primary NK cells, pool 2 (3 donors) (IL-2 2.5 ng/mL)
assayMethodText: percent inhibition of viability; higher = more inhibition
particulars: 72 h; 1000 nM
Exercise: for every item that follows, state its recorded percent inhibition of viability.
Answers are plain numbers, in %.

Past entries and their recorded results:
| molecule | unitSpec | percent inhibition of viability |
| --- | --- | --- |
| Nc1nc(F)nc2c1ncn2[C@@H]1O[C@H](CO)[C@@H](O)[C@@H]1O [Fludarabine] (max concentration tested 10000 nM) | % | 47.7 |
| COc1cc2nccc(Oc3ccc(NC(=O)Nc4cc(C)on4)c(Cl)c3)c2cc1OC [Tivozanib] (max concentration tested 10000 nM) | % | -2.45 |
| CNC(=O)c1cc(Oc2ccc(NC(=O)Nc3ccc(Cl)c(C(F)(F)F)c3)c(F)c2)ccn1 [Regorafenib] (max concentration tested 10000 nM) | % | 12.1 |
| Nc1nccc(-c2c(-c3ccc(F)cc3)ncn2C2CCCCC2)n1 (max concentration tested 10000 nM) | % | 14.7 |
| COc1cc(OC2CCN(C)CC2)ccc1Nc1ncc2c(n1)n(C1CCCC1)c(=O)n2C [AZ 3146] (max concentration tested 10000 nM) | % | 6.73 |

Return reported percent inhibition of viability; argument: Clc1ccc(C(c2ccccc2Cl)C(Cl)Cl)cc1 (stereo unspecified) [Mitotane] (max concentration tested 10000 nM)
-1.37

Cited source for all entries: the supplement of paper PMC5908809
